Data origin: patent US4293483A

zone of inhibition at 1000 µg/mL by entry:
Test system: Neurospora Crassa 846
method.notes: Agar plate disc diffusion test, zone of inhibition
Format: cell-based
measurement.context: Neurospora crassa, CRASSA846, Neurospora Crassa 846; 1 mg/ml, 7 mm disc; * measurable zone of inhibition with regrowth of organism around disc; read-out: Size of Zone of Inhibition (*)
Numbered stars: 1 amine (or outer) side, 2 acyl side, 3 side chain; on linkers, the order of the positions; unused ones are H or OH. Bridge positions count the residues as written; N and C are the ends. Square brackets hold non-standard residues; d marks the D form. Peptide text beside a SMILES is read from it. * marks the point of attachment. Orn(4R-OH,5R-OH) = O=C([C@H](C[C@@H](O)[C@@H](O)N[*:3])N[*:1])[*:2]; hTyr(3S-OH,4S-OH) = N[C@H](C(=O)O)[C@H](O)[C@@H](O)c1ccc(O)cc1; Pro(3S-OH,4S-Me) = C[C@H]1CN[C@H](C(=O)O)[C@H]1O; Hyp = O=C(O)[C@@H]1C[C@@H](O)CN1; X2 = O=C(Cc1ccc(N[*:1])cc1)[*:2]; X4 = Cc1cc(C(=O)[*:2])ccc1N[*:1]; Lauroyl = CCCCCCCCCCCC(=O)*; Aun = NCCCCCCCCCCC(=O)O
Provide the reading as a plain figure in mm.

Some solved entries appear below for comparison.
{"molecule": "CCCCCCCCCCCC(=O)NCCCCCCCCCCC(=O)N[C@H]1C[C@@H](O)[C@@H](O)NC(=O)[C@@H]2[C@@H](O)[C@@H](C)CN2C(=O)[C@H]([C@@H](C)O)NC(=O)[C@H]([C@H](O)[C@@H](O)c2ccc(O)cc2)NC(=O)[C@@H]2C[C@@H](O)CN2C(=O)[C@H]([C@@H](C)O)NC1=O [Example 63] ({Lauroyl-Aun}-[Orn(4R-OH,5R-OH)]T[Hyp][hTyr(3S-OH,4S-OH)]T[Pro(3S-OH,4S-Me)]; lactam 1-C)", "unit.abbrev": "mm", "zone of inhibition at 1000 µg/mL": 28}
{"molecule": "CCCCCCCCCCCC(=O)Nc1ccc(CC(=O)N[C@H]2C[C@@H](O)[C@@H](O)NC(=O)[C@@H]3[C@@H](O)[C@@H](C)CN3C(=O)[C@H]([C@@H](C)O)NC(=O)[C@H]([C@H](O)[C@@H](O)c3ccc(O)cc3)NC(=O)[C@@H]3C[C@@H](O)CN3C(=O)[C@H]([C@@H](C)O)NC2=O)cc1 [Example 72] (Lauroyl-[X2][Orn(4R-OH,5R-OH)]T[Hyp][hTyr(3S-OH,4S-OH)]T[Pro(3S-OH,4S-Me)]; lactam 2-C)", "unit.abbrev": "mm", "zone of inhibition at 1000 µg/mL": 30}

--- query ---
Log: Neurospora Crassa 846, molecule CCCCCCCCCCCC(=O)Nc1ccc(C(=O)N[C@H]2C[C@@H](O)[C@@H](O)NC(=O)[C@@H]3[C@@H](O)[C@@H](C)CN3C(=O)[C@H]([C@@H](C)O)NC(=O)[C@H]([C@H](O)[C@@H](O)c3ccc(O)cc3)NC(=O)[C@@H]3C[C@@H](O)CN3C(=O)[C@H]([C@@H](C)O)NC2=O)cc1C [Example 70] (Lauroyl-[X4][Orn(4R-OH,5R-OH)]T[Hyp][hTyr(3S-OH,4S-OH)]T[Pro(3S-OH,4S-Me)]; lactam 2-C) , zone of inhibition at 1000 µg/mL = 25

* * *

Listing: MIC of selected compounds
Tested on: Trychophyton mentagrophytes #6
method.notes: Agar plate disc diffusion test, MIC per disc
Format: cell-based
measurement.context: 0.01M sodium borate, pH 7.5, 24 hours at 30° C.
Numbered stars: 1 amine (or outer) side, 2 acyl side, 3 side chain; on linkers, the order of the positions; unused ones are H or OH. Bridge positions count the residues as written; N and C are the ends. Square brackets hold non-standard residues; d marks the D form. Peptide text beside a SMILES is read from it. * marks the point of attachment. Orn(4R-OH,5R-OH) = O=C([C@H](C[C@@H](O)[C@@H](O)N[*:3])N[*:1])[*:2]; hTyr(3S-OH,4S-OH) = N[C@H](C(=O)O)[C@H](O)[C@@H](O)c1ccc(O)cc1; Pro(3S-OH,4S-Me) = C[C@H]1CN[C@H](C(=O)O)[C@H]1O; X1 = O=C(c1cc(I)c(N[*:1])c(I)c1)[*:2]; Hyp = O=C(O)[C@@H]1C[C@@H](O)CN1; X2 = O=C(Cc1ccc(N[*:1])cc1)[*:2]; Lauroyl = CCCCCCCCCCCC(=O)*; 4Abz = Nc1ccc(C(=O)O)cc1; Aun = NCCCCCCCCCCC(=O)O; Ava = NCCCCC(=O)O
# unit: μg/disc | format: bare number

Sample answers from the record:
{"compound": "CCCCCCCCCCCC(=O)Nc1ccc(C(=O)NCC(=O)N[C@H]2C[C@@H](O)[C@@H](O)NC(=O)[C@@H]3[C@@H](O)[C@@H](C)CN3C(=O)[C@H]([C@@H](C)O)NC(=O)[C@H]([C@H](O)[C@@H](O)c3ccc(O)cc3)NC(=O)[C@@H]3C[C@@H](O)CN3C(=O)[C@H]([C@@H](C)O)NC2=O)cc1 [Example 74] ({Lauroyl-4Abz}-G[Orn(4R-OH,5R-OH)]T[Hyp][hTyr(3S-OH,4S-OH)]T[Pro(3S-OH,4S-Me)]; lactam 2-C)", "MIC [μg/disc]": 0.078}
{"compound": "CCCCCCCCCCCC(=O)NCCCCCCCCCCC(=O)N[C@H]1C[C@@H](O)[C@@H](O)NC(=O)[C@@H]2[C@@H](O)[C@@H](C)CN2C(=O)[C@H]([C@@H](C)O)NC(=O)[C@H]([C@H](O)[C@@H](O)c2ccc(O)cc2)NC(=O)[C@@H]2C[C@@H](O)CN2C(=O)[C@H]([C@@H](C)O)NC1=O [Example 63] ({Lauroyl-Aun}-[Orn(4R-OH,5R-OH)]T[Hyp][hTyr(3S-OH,4S-OH)]T[Pro(3S-OH,4S-Me)]; lactam 1-C)", "MIC [μg/disc]": 0.156}
{"compound": "CCCCCCCCCCCC(=O)Nc1c(I)cc(C(=O)N[C@H]2C[C@@H](O)[C@@H](O)NC(=O)[C@@H]3[C@@H](O)[C@@H](C)CN3C(=O)[C@H]([C@@H](C)O)NC(=O)[C@H]([C@H](O)[C@@H](O)c3ccc(O)cc3)NC(=O)[C@@H]3C[C@@H](O)CN3C(=O)[C@H]([C@@H](C)O)NC2=O)cc1I [Example 68] (Lauroyl-[X1][Orn(4R-OH,5R-OH)]T[Hyp][hTyr(3S-OH,4S-OH)]T[Pro(3S-OH,4S-Me)]; lactam 2-C)", "MIC [μg/disc]": 0.078}
{"compound": "CCCCCCCCCCCC(=O)Nc1ccc(CC(=O)N[C@H]2C[C@@H](O)[C@@H](O)NC(=O)[C@@H]3[C@@H](O)[C@@H](C)CN3C(=O)[C@H]([C@@H](C)O)NC(=O)[C@H]([C@H](O)[C@@H](O)c3ccc(O)cc3)NC(=O)[C@@H]3C[C@@H](O)CN3C(=O)[C@H]([C@@H](C)O)NC2=O)cc1 [Example 72] (Lauroyl-[X2][Orn(4R-OH,5R-OH)]T[Hyp][hTyr(3S-OH,4S-OH)]T[Pro(3S-OH,4S-Me)]; lactam 2-C)", "MIC [μg/disc]": 0.078}

For CCCCCCCCCCCC(=O)NCCCCC(=O)N[C@H]1C[C@@H](O)[C@@H](O)NC(=O)[C@@H]2[C@@H](O)[C@@H](C)CN2C(=O)[C@H]([C@@H](C)O)NC(=O)[C@H]([C@H](O)[C@@H](O)c2ccc(O)cc2)NC(=O)[C@@H]2C[C@@H](O)CN2C(=O)[C@H]([C@@H](C)O)NC1=O [Example 62] ({Lauroyl-Ava}-[Orn(4R-OH,5R-OH)]T[Hyp][hTyr(3S-OH,4S-OH)]T[Pro(3S-OH,4S-Me)]; lactam 1-C) the compound record lists MIC as 0.078

* * *

Test system: Neurospora Crassa 846
method.notes: Agar plate disc diffusion test, zone of inhibition
Assay type: cell-based
measurement.context: Neurospora crassa, CRASSA846, Neurospora Crassa 846; 1 mg/ml, 7 mm disc; * measurable zone of inhibition with regrowth of organism around disc; read-out: Size of Zone of Inhibition (*)
Numbered stars: 1 amine (or outer) side, 2 acyl side, 3 side chain; on linkers, the order of the positions; unused ones are H or OH. Bridge positions count the residues as written; N and C are the ends. Square brackets hold non-standard residues; d marks the D form. Peptide text beside a SMILES is read from it. * marks the point of attachment. Orn(4R-OH,5R-OH) = O=C([C@H](C[C@@H](O)[C@@H](O)N[*:3])N[*:1])[*:2]; hTyr(3S-OH,4S-OH) = N[C@H](C(=O)O)[C@H](O)[C@@H](O)c1ccc(O)cc1; Pro(3S-OH,4S-Me) = C[C@H]1CN[C@H](C(=O)O)[C@H]1O; X9 = COc1ccc(C(=O)[*:2])cc1N[*:1]; Hyp = O=C(O)[C@@H]1C[C@@H](O)CN1; X3 = O=C(c1cccnc1N[*:1])[*:2]; Lauroyl = CCCCCCCCCCCC(=O)*
# key: entry, value: zone of inhibition at 1000 µg/mL
Could you give me the number in mm? Just the number is fine.

zone of inhibition at 1000 µg/mL for Neurospora Crassa 846 with input CCCCCCCCCCCC(=O)Nc1cc(C(=O)N[C@H]2C[C@@H](O)[C@@H](O)NC(=O)[C@@H]3[C@@H](O)[C@@H](C)CN3C(=O)[C@H]([C@@H](C)O)NC(=O)[C@H]([C@H](O)[C@@H](O)c3ccc(O)cc3)NC(=O)[C@@H]3C[C@@H](O)CN3C(=O)[C@H]([C@@H](C)O)NC2=O)ccc1OC [Example 71] (Lauroyl-[X9][Orn(4R-OH,5R-OH)]T[Hyp][hTyr(3S-OH,4S-OH)]T[Pro(3S-OH,4S-Me)]; lactam 2-C) equals 32

// compound CCCCCCCCCCCC(=O)Nc1ncccc1C(=O)N[C@H]1C[C@@H](O)[C@@H](O)NC(=O)[C@@H]2[C@@H](O)[C@@H](C)CN2C(=O)[C@H]([C@@H](C)O)NC(=O)[C@H]([C@H](O)[C@@H](O)c2ccc(O)cc2)NC(=O)[C@@H]2C[C@@H](O)CN2C(=O)[C@H]([C@@H](C)O)NC1=O [Example 75] (Lauroyl-[X3][Orn(4R-OH,5R-OH)]T[Hyp][hTyr(3S-OH,4S-OH)]T[Pro(3S-OH,4S-Me)]; lactam 2-C) , assay Neurospora Crassa 846, zone of inhibition at 1000 µg/mL value: 30
